A/AI (current amplitude ratio without/with compound) listing for selected molecules.
- tested-on: GluA1 (Rattus norvegicus, UniProt P19490)
- Construct: expressed in transfected cells; host or cells: HEK293T
- protocol-text: Whole-cell patch-clamp recording of homomeric GluA1 AMPAR expressed in HEK293T cells
- Type: cell-based
- experimental-setup: 10 mM glutamate, 16 µM compound, n=8

Consider the reported A/AI (current amplitude ratio without/with compound) for these molecules:
| item-smiles | result |
| --- | --- |
| O=C1Cc2cc3c(cc2C(c2ccc([N+](=O)[O-])cc2F)=NN1)OCO3 | 3.94±0.2 |
| COc1cc(N)ccc1C1=NNC(=O)Cc2cc3c(cc21)OCO3 | 9.82±0.7 |

GET /value?item= `Nc1ccc(C2=NNC(=O)Cc3cc4c(cc32)OCO4)c(F)c1` &field=A/AI (current amplitude ratio without/with compound) returns 11.08±1.0

GET /value?item= `COc1cc([N+](=O)[O-])ccc1C1=NNC(=O)Cc2cc3c(cc21)OCO3` &field=A/AI (current amplitude ratio without/with compound) returns 3.41±0.2

* * *

- tested-on: GluA2 (Rattus norvegicus)
- Construct: expressed in transfected cells; host or cells: HEK293T
- Sequence (P19491 22-883 isoform P19491-2 limits assumed): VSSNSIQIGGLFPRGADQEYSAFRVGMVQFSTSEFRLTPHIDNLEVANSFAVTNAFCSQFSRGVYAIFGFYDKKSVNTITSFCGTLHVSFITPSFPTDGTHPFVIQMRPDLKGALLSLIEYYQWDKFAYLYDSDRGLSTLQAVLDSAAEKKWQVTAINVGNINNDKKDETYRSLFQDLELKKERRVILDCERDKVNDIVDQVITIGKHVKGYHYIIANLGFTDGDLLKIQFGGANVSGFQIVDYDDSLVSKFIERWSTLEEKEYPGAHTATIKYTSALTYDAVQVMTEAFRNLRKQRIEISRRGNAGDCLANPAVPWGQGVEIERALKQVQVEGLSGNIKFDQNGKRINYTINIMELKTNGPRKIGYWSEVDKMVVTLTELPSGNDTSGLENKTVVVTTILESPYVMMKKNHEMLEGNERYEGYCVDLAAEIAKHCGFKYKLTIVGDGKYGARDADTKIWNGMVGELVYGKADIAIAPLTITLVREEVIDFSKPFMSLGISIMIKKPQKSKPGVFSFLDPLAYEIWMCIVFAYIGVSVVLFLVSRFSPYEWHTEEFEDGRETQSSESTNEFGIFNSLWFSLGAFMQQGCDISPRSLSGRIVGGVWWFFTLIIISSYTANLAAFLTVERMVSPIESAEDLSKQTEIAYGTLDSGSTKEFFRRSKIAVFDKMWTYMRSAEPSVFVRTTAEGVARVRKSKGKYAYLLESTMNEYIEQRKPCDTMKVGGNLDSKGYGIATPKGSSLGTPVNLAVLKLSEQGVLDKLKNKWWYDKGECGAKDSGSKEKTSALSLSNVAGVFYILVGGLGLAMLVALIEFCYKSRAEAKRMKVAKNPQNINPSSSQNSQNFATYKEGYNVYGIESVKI
- protocol-text: Whole-cell patch-clamp recording of homomeric GluA2 AMPAR expressed in HEK293T cells
- Format: cell-based
- experimental-setup: 10 mM glutamate, 16 µM compound, n=8
A/AI (current amplitude ratio without/with compound) listing for selected compounds.
Form: value (number only, do not type unit).

Consider the reported A/AI (current amplitude ratio without/with compound) for these compounds:
| item-smiles | tested-on | number |
| --- | --- | --- |
| COc1cc(N)ccc1C1=NNC(=O)Cc2cc3c(cc21)OCO3 | GluA2 (Rattus norvegicus) | 10.42 |
| COc1cc([N+](=O)[O-])ccc1C1=NNC(=O)Cc2cc3c(cc21)OCO3 | GluA2 (Rattus norvegicus) | 3.68 |
| Nc1ccc(C2=NNC(=O)Cc3cc4c(cc32)OCO4)c(F)c1 | GluA2 (Rattus norvegicus) | 12.31 |

Here's the next entry for you.
GET /value?item= `O=C1Cc2cc3c(cc2C(c2ccc([N+](=O)[O-])cc2F)=NN1)OCO3` &field=A/AI (current amplitude ratio without/with compound) returns 4.16

* * *

- tested-on: GluA2/3 (Rattus norvegicus, UniProt P19491+P19492)
- Construct: expressed in transfected cells; host or cells: HEK293T
- Sequence (P19491 22-883 isoform P19491-2 limits assumed): as above
- Sequence (P19492 23-888 isoform P19492-2 limits assumed): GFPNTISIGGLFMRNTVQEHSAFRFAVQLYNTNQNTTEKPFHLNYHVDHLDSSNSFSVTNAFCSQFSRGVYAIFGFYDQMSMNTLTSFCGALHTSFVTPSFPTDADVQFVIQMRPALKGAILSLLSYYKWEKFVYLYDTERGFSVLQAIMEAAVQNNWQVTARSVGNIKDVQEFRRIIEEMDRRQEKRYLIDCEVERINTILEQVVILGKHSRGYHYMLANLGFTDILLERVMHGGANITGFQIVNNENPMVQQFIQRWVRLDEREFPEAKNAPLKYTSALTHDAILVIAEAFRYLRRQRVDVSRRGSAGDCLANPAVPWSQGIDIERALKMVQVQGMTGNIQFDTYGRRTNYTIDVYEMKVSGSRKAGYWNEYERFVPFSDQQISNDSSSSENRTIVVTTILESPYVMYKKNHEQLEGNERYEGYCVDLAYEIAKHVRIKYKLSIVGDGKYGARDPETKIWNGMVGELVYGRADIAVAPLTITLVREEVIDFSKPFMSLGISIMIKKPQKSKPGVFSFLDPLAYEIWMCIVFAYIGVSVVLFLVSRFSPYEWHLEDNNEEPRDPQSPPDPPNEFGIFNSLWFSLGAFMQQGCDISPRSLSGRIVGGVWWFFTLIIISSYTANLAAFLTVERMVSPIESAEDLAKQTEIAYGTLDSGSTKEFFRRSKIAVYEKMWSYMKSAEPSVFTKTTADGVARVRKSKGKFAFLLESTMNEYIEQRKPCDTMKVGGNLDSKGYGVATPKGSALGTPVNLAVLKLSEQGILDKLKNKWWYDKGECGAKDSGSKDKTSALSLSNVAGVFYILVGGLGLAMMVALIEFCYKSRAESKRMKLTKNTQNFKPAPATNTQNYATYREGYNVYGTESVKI
- protocol-text: Whole-cell patch-clamp recording of heteromeric GluA2/3 AMPAR expressed in HEK293T cells
- Format: cell-based
- experimental-setup: normalized peak current, -60 mV, pH 7.4, 22 °C, read-out: IC50
recorded-metric: IC50 (µM)
Field: numeric (µM). Do not append units.

Consider the reported IC50 for these molecules:
| molecule | tested-on | unit-tag | IC50 |
| --- | --- | --- | --- |
| COc1cc(N)ccc1C1=NNC(=O)Cc2cc3c(cc21)OCO3 [2,3-BDZ-2] | GluA2/3 (Rattus norvegicus, UniProt P19491+P19492) | µM | 3.45 |
| O=C1Cc2cc3c(cc2C(c2ccc([N+](=O)[O-])cc2F)=NN1)OCO3 [2,3-BDZ-3] | GluA2/3 (Rattus norvegicus, UniProt P19491+P19492) | µM | 5.76 |
| COc1cc([N+](=O)[O-])ccc1C1=NNC(=O)Cc2cc3c(cc21)OCO3 [2,3-BDZ-4] | GluA2/3 (Rattus norvegicus, UniProt P19491+P19492) | µM | 6.69 |

Here's the next entry for you.
Entry Nc1ccc(C2=NNC(=O)Cc3cc4c(cc32)OCO4)c(F)c1 [2,3-BDZ-1] , tested on GluA2/3 (Rattus norvegicus, UniProt P19491+P19492), has a reported IC50 of 3.09

// data source = paper PMC10458471
